Data credit: paper PMC9311154

# Target or test system: CYP3A4 (Homo sapiens, UniProt P08684)
# Sequence (P08684 whole entry): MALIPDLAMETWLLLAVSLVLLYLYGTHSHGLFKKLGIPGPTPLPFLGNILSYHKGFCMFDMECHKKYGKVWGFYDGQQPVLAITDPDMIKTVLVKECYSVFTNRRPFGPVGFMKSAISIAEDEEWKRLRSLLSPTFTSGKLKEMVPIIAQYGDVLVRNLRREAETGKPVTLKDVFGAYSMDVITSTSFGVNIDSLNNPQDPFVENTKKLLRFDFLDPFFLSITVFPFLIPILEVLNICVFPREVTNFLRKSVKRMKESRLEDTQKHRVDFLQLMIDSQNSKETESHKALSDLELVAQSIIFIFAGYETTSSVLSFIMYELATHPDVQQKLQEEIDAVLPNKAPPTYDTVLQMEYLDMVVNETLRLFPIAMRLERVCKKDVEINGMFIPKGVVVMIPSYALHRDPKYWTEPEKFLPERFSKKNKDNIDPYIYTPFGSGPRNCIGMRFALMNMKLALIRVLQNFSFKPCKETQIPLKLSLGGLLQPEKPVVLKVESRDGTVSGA
# Protocol details: Midazolam interaction study
# Assay type: in vivo
# Condition context: human, plasma, oral, 7.5 mg, tmax, Day −1, midazolam 7.5 mg alone, BAY 2433334 75 mg OD group; median (range)
Result type: tmax (min)
Response body: numeric value in min, unit text excluded.

Lab note: need tmax for Cc1ncc2n1-c1ccc(Cl)cc1C(c1ccccc1F)=NC2 on CYP3A4 (Homo sapiens, UniProt P08684), anyone have it?
45

---

# Target or test system: CYP3A4 (Homo sapiens, UniProt P08684)
# Protocol details: Midazolam interaction study
# Format: in vivo
# Condition context: human, plasma, oral, tmax, Day 1, midazolam 7.5 mg with BAY 2433334 75 mg OD; median (range)
Result type: tmax (min)
Write it as a number; the unit min goes unstated.

Entry Cc1ncc2n1-c1ccc(Cl)cc1C(c1ccccc1F)=NC2 : reported tmax = ?
45

---

# Target or test system: CYP3A4 (Homo sapiens, UniProt P08684)
# Protocol details: Midazolam interaction study
# Format: in vivo
# Condition context: human, plasma, oral, tmax, Day 10, midazolam 7.5 mg with BAY 2433334 75 mg OD; median (range)
Result type: tmax (min)
Kindly provide the numeric value in min only, without the unit symbol.

What value of measured tmax is listed for Cc1ncc2n1-c1ccc(Cl)cc1C(c1ccccc1F)=NC2 [Midazolam, midazolam] ?
45
